Measured Enzyme inhibition Collagenase, listed per entry for reference.
system: Collagenase from Clostridium histolyticum; assay: Collagenase inhibition assay (FALGPA substrate); format: biochemical; settings: 100 μM
Please give a number only; it is taken to be in %.

## Input // returns reported Enzyme inhibition Collagenase for input O=c1oc2cc(O)cc(O)c2cc1-c1cccc(Br)c1 [Compound 2, 3-(3′-Bromophenyl)-5,7-dihydroxycoumarin]
## Output 44.3

## Input // returns reported Enzyme inhibition Collagenase for input O=c1oc2cc(O)c(O)cc2cc1-c1ccccc1Br [Compound 6, 3-(2′-Bromophenyl)-6,7-dihydroxycoumarin]
## Output 38.1

## Input // returns reported Enzyme inhibition Collagenase for input O=c1oc2c(O)c(O)ccc2cc1-c1ccccc1Br [Compound 9, 3-(2′-Bromophenyl)-7,8-dihydroxycoumarin]
## Output 14.7

## Input // returns reported Enzyme inhibition Collagenase for input O=c1oc2cc(O)ccc2cc1-c1cccc(Br)c1 [Compound 10, 3-(3′-Bromophenyl)-7-hydroxycoumarin]
## Output 13.2

## Input // returns reported Enzyme inhibition Collagenase for input O=c1oc2cc(O)cc(O)c2cc1-c1ccccc1Br [Compound 3, 3-(2′-Bromophenyl)-5,7-dihydroxycoumarin]
## Output 37.1

====

experiment: In vitro determination of the sun protection factor (UV absorbance, Mansur equation); assay type: physicochemical; conditions: compounds 0.1 mg/mL, absorbance 290–320 nm
Measured SPF, listed per entry for reference.
Quick one: just the number, no unit, thanks!

Solved cases (4 shown):
compound: O=c1oc2ccc3ccccc3c2cc1-c1cc(O)cc(O)c1
numeric_readout: 4.34
--
compound: O=c1oc2c(O)c(O)ccc2cc1-c1ccccc1Br [Compound 9, 3-(2′-Bromophenyl)-7,8-dihydroxycoumarin]
numeric_readout: 4.27
--
compound: O=c1oc2ccc3ccccc3c2cc1-c1ccc(O)c(O)c1
numeric_readout: 5.09
--
compound: O=c1oc2cc(O)ccc2cc1-c1cccc(Br)c1 [Compound 10, 3-(3′-Bromophenyl)-7-hydroxycoumarin]
numeric_readout: 6.70

## Input // returns reported SPF for input O=c1oc2ccc3ccccc3c2cc1-c1cccc(O)c1 [Compound 14, 3-(3′-Hydroxyphenyl)benzo[f]coumarin]
## Output 5.08

## Input // returns reported SPF for input O=c1oc2c(O)c(O)ccc2cc1-c1cccc(Br)c1 [Compound 8, 3-(3′-Bromophenyl)-7,8-dihydroxycoumarin]
## Output 6.94

## Input // returns reported SPF for input O=c1oc2ccc3ccccc3c2cc1-c1ccccc1O [Compound 15, 3-(2′-Hydroxyphenyl)benzo[f]coumarin]
## Output 6.89

====

assay: In vitro determination of the sun protection factor (UV absorbance, Mansur equation); type: physicochemical; conditions: compounds 0.1 mg/mL, absorbance 290–320 nm
Measured SPF, listed per entry for reference.

molecule: O=c1oc2cc(O)cc(O)c2cc1-c1ccccc1Br [Compound 3, 3-(2′-Bromophenyl)-5,7-dihydroxycoumarin]
result: 5.89 ± 0.21
//
molecule: O=c1oc2cc(O)cc(O)c2cc1-c1cccc(Br)c1 [Compound 2, 3-(3′-Bromophenyl)-5,7-dihydroxycoumarin]
result: 4.52 ± 0.22
//
molecule: O=c1oc2ccc3ccccc3c2cc1-c1ccc(O)cc1 [Compound 13, 3-(4′-Hydroxyphenyl)benzo[f]coumarin]
result: 6.40 ± 1.53

## Input // returns reported SPF for input O=c1oc2c(O)c(O)ccc2cc1-c1ccc(Br)cc1 [Compound 7, 3-(4′-Bromophenyl)-7,8-dihydroxycoumarin]
## Output 5.88 ± 1.35
